Experiment: Half life in ddY mouse 10 mg/kg, po
Assay type: ADME, organism-based
Conditions: in vivo
Reported half-life is given for each of the following molecules.

[
  {
    "Molecule smiles": "CCC12CCN(CC1)Cc1c([nH]c3ccccc13)C2=O.O=S(=O)(O)O",
    "half-life [h]": 1.28
  },
  {
    "Molecule smiles": "CC12CCN(CC1)Cc1c([nH]c3ccccc13)C2=O.O=S(=O)(O)O",
    "half-life [h]": 2.33
  },
  {
    "Molecule smiles": "O=C1c2[nH]c3ccccc3c2CN2CCC1CC2",
    "half-life [h]": 1.17
  }
]

###

Molecular target: Mu-type opioid receptor (Homo sapiens)
Sequence (P35372 whole entry): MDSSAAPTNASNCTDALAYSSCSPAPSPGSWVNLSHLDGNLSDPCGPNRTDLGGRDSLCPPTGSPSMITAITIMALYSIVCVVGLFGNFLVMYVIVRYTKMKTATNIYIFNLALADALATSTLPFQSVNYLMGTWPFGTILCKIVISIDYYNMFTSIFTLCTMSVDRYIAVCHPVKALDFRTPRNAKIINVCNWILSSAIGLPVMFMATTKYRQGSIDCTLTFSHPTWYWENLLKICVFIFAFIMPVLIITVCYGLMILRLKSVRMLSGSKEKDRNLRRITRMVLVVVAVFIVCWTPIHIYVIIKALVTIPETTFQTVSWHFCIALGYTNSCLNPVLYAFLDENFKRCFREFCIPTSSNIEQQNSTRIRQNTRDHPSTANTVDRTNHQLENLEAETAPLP
pIC50: −log10 of the molar value.

[
  {
    "Molecule smiles": "CC12CCN(CC1)Cc1c([nH]c3ccccc13)C2=O.O=S(=O)(O)O",
    "Value prefix": "=",
    "pIC50": 4.15
  },
  {
    "Molecule smiles": "O=C1c2[nH]c3ccccc3c2CN2CCC1CC2",
    "Value prefix": "<",
    "pIC50": 4.00
  },
  {
    "Molecule smiles": "C/C=C1/CN2CC[C@H]1C(=O)c1[nH]c3ccccc3c1C2.O=S(=O)(O)O",
    "Value prefix": "=",
    "pIC50": 4.15
  }
]

###

Assay: Distribution coefficient between 1-octanol and phosphate buffer, logD of the compound in pH 7.4 buffer
Format: physicochemical
Settings: 1-octanol/phosphate buffer

[
  {
    "Compound": "C/C=C1/CN2CCC1C(=O)c1[nH]c3cc(OC)ccc3c1C2 (racemic)",
    "logD": 3.1
  },
  {
    "Compound": "C/C=C1/CN2CCC1C(=O)c1[nH]c3cccc(OC)c3c1C2 (racemic)",
    "logD": 3.4
  },
  {
    "Compound": "C/C=C1\\CN2CCC1C(=O)c1[nH]c3ccccc3c1C2 (racemic)",
    "logD": 3.3
  },
  {
    "Compound": "CC12CCN(CC1)Cc1c([nH]c3ccccc13)C2=O.O=S(=O)(O)O",
    "logD": 2.5
  },
  {
    "Compound": "O=C1c2[nH]c3ccccc3c2CN2CCC1CC2",
    "logD": 1.8
  },
  {
    "Compound": "CCC12CCN(CC1)Cc1c([nH]c3ccccc13)C2=O.O=S(=O)(O)O",
    "logD": 3
  },
  {
    "Compound": "C/C=C1/CN2CC[C@H]1C(=O)c1[nH]c3ccccc3c1C2.O=S(=O)(O)O",
    "logD": 2.8
  }
]
